The reported measurements were obtained from patent EP4813993A1.

- test_target: Nav1.8 channels (Homo sapiens, UniProt Q9Y5Y9)
- Construct: expressed in transfected cells
- Sequence (Q9Y5Y9 whole entry): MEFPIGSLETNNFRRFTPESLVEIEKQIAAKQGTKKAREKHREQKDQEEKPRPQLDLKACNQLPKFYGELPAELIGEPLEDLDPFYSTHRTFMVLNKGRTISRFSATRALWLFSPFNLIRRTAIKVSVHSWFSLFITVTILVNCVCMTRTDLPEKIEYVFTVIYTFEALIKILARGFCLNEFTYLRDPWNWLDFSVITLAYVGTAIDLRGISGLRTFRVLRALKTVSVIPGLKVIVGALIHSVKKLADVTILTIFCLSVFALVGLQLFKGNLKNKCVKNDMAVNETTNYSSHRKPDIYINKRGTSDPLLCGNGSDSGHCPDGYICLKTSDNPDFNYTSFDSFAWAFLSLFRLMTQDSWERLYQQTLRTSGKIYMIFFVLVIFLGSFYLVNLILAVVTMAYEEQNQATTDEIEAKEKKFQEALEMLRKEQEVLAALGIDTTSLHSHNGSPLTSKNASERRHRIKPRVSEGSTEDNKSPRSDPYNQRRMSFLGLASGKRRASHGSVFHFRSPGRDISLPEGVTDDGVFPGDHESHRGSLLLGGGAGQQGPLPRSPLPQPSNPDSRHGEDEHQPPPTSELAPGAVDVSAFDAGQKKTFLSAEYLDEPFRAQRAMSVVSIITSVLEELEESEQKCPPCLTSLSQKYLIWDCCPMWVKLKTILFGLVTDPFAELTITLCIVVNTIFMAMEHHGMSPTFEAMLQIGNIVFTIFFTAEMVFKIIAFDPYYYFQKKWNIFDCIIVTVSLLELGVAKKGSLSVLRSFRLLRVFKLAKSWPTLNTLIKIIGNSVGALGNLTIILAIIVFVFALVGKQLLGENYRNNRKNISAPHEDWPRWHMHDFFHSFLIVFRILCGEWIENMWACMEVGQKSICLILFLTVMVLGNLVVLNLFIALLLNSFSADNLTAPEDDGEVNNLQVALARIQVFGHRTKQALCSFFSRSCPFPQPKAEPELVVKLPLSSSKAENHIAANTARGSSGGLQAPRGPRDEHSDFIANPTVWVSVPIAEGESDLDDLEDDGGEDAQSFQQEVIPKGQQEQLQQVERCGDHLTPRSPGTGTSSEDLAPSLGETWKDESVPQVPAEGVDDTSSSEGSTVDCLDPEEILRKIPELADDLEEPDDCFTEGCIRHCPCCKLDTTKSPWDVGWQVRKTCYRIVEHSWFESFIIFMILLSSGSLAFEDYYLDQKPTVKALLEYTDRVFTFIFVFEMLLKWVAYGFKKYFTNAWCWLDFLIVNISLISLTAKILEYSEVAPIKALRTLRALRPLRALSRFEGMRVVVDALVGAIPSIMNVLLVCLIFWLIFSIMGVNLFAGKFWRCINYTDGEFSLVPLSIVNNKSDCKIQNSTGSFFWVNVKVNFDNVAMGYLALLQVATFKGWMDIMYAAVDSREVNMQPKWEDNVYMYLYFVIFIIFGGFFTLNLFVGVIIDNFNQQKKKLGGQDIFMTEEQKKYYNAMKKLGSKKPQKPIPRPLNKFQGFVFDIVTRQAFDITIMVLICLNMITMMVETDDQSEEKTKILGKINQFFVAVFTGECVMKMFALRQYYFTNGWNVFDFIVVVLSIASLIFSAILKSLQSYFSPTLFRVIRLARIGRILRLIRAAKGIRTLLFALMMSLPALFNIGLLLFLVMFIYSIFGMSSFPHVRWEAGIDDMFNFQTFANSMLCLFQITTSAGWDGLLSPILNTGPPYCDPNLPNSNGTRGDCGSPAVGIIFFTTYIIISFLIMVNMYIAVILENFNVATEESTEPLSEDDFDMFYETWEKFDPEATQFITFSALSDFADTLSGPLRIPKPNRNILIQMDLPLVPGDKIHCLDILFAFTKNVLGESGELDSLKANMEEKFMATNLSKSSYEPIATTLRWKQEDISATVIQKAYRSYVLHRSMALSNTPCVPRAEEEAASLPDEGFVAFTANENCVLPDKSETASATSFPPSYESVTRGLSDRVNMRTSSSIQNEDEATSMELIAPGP
- assay_info: Manual patch-clamp, current of stably overexpressed Nav1.8 channels (resting state voltage program)
- Assay type: cell-based
- test_context: concentration of 10 nM, read-out: Inhibition rate %
- Method: Experimental Example 1: Effects of test substances on current of stably overexpressed Nav1.8 channels monitored via manual patch-clamp technique Test compounds were dissolved in dimethyl sulfoxide (DMSO). […] After the formation of the whole-cell seal, the cell voltage was clamped at -120 mV, followed by depolarization to 0 mV using a square-wave pulse with a duration of 50 ms to elicit Nav1.8 currents. […] Once the response stabilized, the intensity of the current block was calculated.
quantity: inhibition at 0.01 µM (%)
Lab book: enter the figure in %, no units written.

If you can, please state the reported inhibition at 0.01 µM value of COc1c(C2CC(C)(C(F)(F)F)SC2C(=O)Nc2ccnc(C(N)=O)c2)ccc(F)c1F (centres unmarked) . 98.2

If you can, please state the reported inhibition at 0.01 µM value of COc1c(C2CC(C)(C(F)(F)F)SC2C(=O)Nc2cccc(B(O)O)c2)ccc(F)c1F (centres unmarked) . 84.9

If you can, please state the reported inhibition at 0.01 µM value of COc1c([C@@H]2C[C@](C)(C(F)(F)F)S[C@H]2C(=O)Nc2ccnc(OCC(O)CO)c2)ccc(F)c1F (some centres unmarked) . 88.8

If you can, please state the reported inhibition at 0.01 µM value of "COc1c([C@@H]2C[C@](C)(C(F)(F)F)S[C@H]2C(=O)Nc2cccc(C3N=N3)c2)ccc(F)c1F" . 80.6

If you can, please state the reported inhibition at 0.01 µM value of "COC(=O)c1cc(NC(=O)[C@@H]2S[C@@](C)(C(F)(F)F)C[C@H]2c2ccc(F)c(F)c2OC)ccc1B(O)O" . 77.9

If you can, please state the reported inhibition at 0.01 µM value of "COc1c([C@@H]2C[C@](C)(C(F)(F)F)S[C@H]2C(=O)Nc2cccc(NS(N)(=O)=O)c2)ccc(F)c1F" . 86.3

If you can, please state the reported inhibition at 0.01 µM value of "[2H][C@@]1(C(=O)Nc2csc(B(O)O)c2)S[C@@](C)(C(F)(F)F)C[C@H]1c1ccc(F)c(F)c1OC" . 80.9

If you can, please state the reported inhibition at 0.01 µM value of "COc1c([C@@H]2C[C@](C)(C(F)(F)F)S[C@H]2C(=O)Nc2ccc3c(c2)S(=O)(=O)NC3=O)ccc(F)c1F" . 83.7

If you can, please state the reported inhibition at 0.01 µM value of "COc1c([C@@H]2C[C@](C)(C(F)(F)F)S[C@H]2C(=O)Nc2ccc(=O)n(C)c2)ccc(F)c1F" . 90.2

If you can, please state the reported inhibition at 0.01 µM value of "COc1c([C@@H]2C[C@](C)(C(F)(F)F)S[C@H]2C(=O)Nc2ccc(B(O)O)c(F)c2)ccc(F)c1F" . 92.7

If you can, please state the reported inhibition at 0.01 µM value of COc1c(C2CC(C)(C(F)(F)F)SC2C(=O)Nc2ccnc(N=S(C)(C)=O)c2)ccc(F)c1F (centres unmarked) . 88

If you can, please state the reported inhibition at 0.01 µM value of COc1c(C2CC(C)(C(F)(F)F)SC2C(=O)Nc2ccc3c(c2)B(O)OC3)ccc(F)c1F (centres unmarked) . 65

If you can, please state the reported inhibition at 0.01 µM value of [2H]C1(C(=O)Nc2ccc(F)c(B(O)O)c2)SC(C)(C(F)(F)F)CC1c1ccc(F)c(F)c1OC (centres unmarked) . 87.9

If you can, please state the reported inhibition at 0.01 µM value of COc1c(C2CC(C)(C(F)(F)F)SC2C(=O)Nc2ccc([S+](C)[O-])nc2)ccc(F)c1F (centres unmarked) . 96.1

If you can, please state the reported inhibition at 0.01 µM value of "[2H][C@@]1(C(=O)Nc2ccnc(C(N)=O)c2)S[C@@](C)(C(F)(F)F)C[C@H]1c1ccc(F)c(F)c1OC" . 96.2

If you can, please state the reported inhibition at 0.01 µM value of COc1c(C2CC(C)(C(F)(F)F)SC2C(=O)Nc2ccc(B(O)O)c(Br)c2)ccc(F)c1F (centres unmarked) . 89.7

If you can, please state the reported inhibition at 0.01 µM value of "COc1c([C@@H]2C[C@](C)(C(F)(F)F)S[C@H]2C(=O)Nc2ccc3c(c2)B(O)OC3)ccc(F)c1F" . 84.7

If you can, please state the reported inhibition at 0.01 µM value of "CNS(=O)(=O)c1cccc(NC(=O)[C@@H]2S[C@@](C)(C(F)(F)F)C[C@H]2c2ccc(F)c(F)c2OC)c1" . 95.4

If you can, please state the reported inhibition at 0.01 µM value of COc1c(C2CC(C)(C)SC2C(=O)Nc2ccnc(C(N)=O)c2)ccc(F)c1F (centres unmarked) . 76.5

If you can, please state the reported inhibition at 0.01 µM value of [2H]C1(C(=O)Nc2ccnc(O)c2)SC(C)(C(F)(F)F)CC1c1ccc(F)c(F)c1OC (centres unmarked) . 97

If you can, please state the reported inhibition at 0.01 µM value of "COc1c([C@@H]2C[C@](C)(C(F)(F)F)S[C@H]2C(=O)Nc2ccc(SC)nc2)ccc(F)c1F" . 83.7

If you can, please state the reported inhibition at 0.01 µM value of COc1c(C2CC(C)(C(F)(F)F)SC2C(=O)Nc2cccc(S(=O)(=O)NC#N)c2)ccc(F)c1F (centres unmarked) . 85.3

If you can, please state the reported inhibition at 0.01 µM value of COc1c(C2CC(C)(C(F)(F)F)SC2C(=O)Nc2cn(C(F)F)nc2C)ccc(F)c1F (centres unmarked) . 89.4

If you can, please state the reported inhibition at 0.01 µM value of "COc1c([C@@H]2C[C@](C)(C(F)(F)F)S[C@H]2C(=O)Nc2ccc(F)c(C/C(C#N)=C(\C)O)c2)ccc(F)c1F" . 65.5

If you can, please state the reported inhibition at 0.01 µM value of "COc1c([C@@H]2C[C@](C)(C(F)(F)F)S[C@H]2C(=O)Nc2ccc3c(c2)S(=O)(=O)NCN3)ccc(F)c1F" . 95.6

If you can, please state the reported inhibition at 0.01 µM value of COc1c(C2CC(C)(C(F)(F)F)SC2C(=O)Nc2ccnc(NO)c2)ccc(F)c1F (centres unmarked) . 92.3

If you can, please state the reported inhibition at 0.01 µM value of "COc1c([C@@H]2C[C@](C)(C(F)(F)F)S[C@H]2C(=O)Nc2cccc(S(=O)(=O)N(C)C)c2)ccc(F)c1F" . 87.4

If you can, please state the reported inhibition at 0.01 µM value of COc1c(C2CC(C)(C(F)(F)F)SC2C(=O)Nc2conc2C)ccc(F)c1F (centres unmarked) . 91.1

If you can, please state the reported inhibition at 0.01 µM value of "COc1c([C@@H]2C[C@](C)(C(F)(F)F)S[C@H]2C(=O)Nc2ccc(F)c(C(N)=O)c2)ccc(F)c1F" . 98.3
